Data credit: ChEMBL document CHEMBL2163258

test: Lipophilicity, log D of the compound at pH 7.4 by shake flask method; assay type: physicochemical; settings: buffer
readout.kind: logD
Please state the value as a number alone, without comment.

Query block: Need logD of Cc1cc(OCCCS(C)(=O)=O)cc(C)c1-c1cccc(COc2ccc3c(c2)OCC3CC(=O)O)c1 (racemic) , thanks.
Result block: 2.24

* * *

experiment: Tmax in C57bl/6 mouse at 10 mg/kg, po; assay type: ADME, organism-based; parameters: dose 10 mg/kg, route oral; details: in vivo
readout.kind: Tmax (min)
Expressed in min, but write only the number.

Query block: Need Tmax of "Cc1cc(OCCCS(C)(=O)=O)ccc1-c1cccc(CNc2ccc(CCC(=O)O)c(F)c2)c1" , thanks.
Result block: 15

Continue with the next compound.
Query block: Need Tmax of "Cc1ccccc1-c1cccc(CNc2ccc(CCC(=O)O)cc2)c1" , thanks.
Result block: 15

* * *

assay: Stability in human liver microsomes at 1 uM incubated for 60 mins by HPLC-MS/MS method; type: ADME, Microsome; settings: read-out: Stability
readout.kind: remaining at 1 h, 1 µM
Remember to put the unit after the number in your answer.

Check out these entries, answers already filled in.
Query block: Need remaining at 1 h, 1 µM of Cc1cc(OCCCS(C)(=O)=O)cc(C)c1-c1cccc(COc2ccc3c(c2)OCC3CC(=O)O)c1 (racemic) , thanks.
Result block: 101%

Query block: Need remaining at 1 h, 1 µM of "Cc1cc(OCCCS(C)(=O)=O)ccc1-c1cccc(CNc2ccc(CCC(=O)O)cc2)c1" , thanks.
Result block: 106%

Query block: Need remaining at 1 h, 1 µM of "Cc1ccccc1-c1cccc(CNc2ccc(CCC(=O)O)cc2)c1" , thanks.
Result block: 87%

Query block: Need remaining at 1 h, 1 µM of "Cc1cccc(C)c1-c1cccc(COc2ccc(CCC(=O)O)c(F)c2)c1" , thanks.
Result block: 42%

Continue with the next compound.
Query block: Need remaining at 1 h, 1 µM of "Cc1cc(OCCCS(C)(=O)=O)ccc1-c1cccc(CNc2ccc(CCC(=O)O)c(F)c2)c1" , thanks.
Result block: 100%
